Target: SMO (Mus musculus, UniProt P56726)
Construct: endogenous in cells; host or cells: C3H10T1/2 (ATCC #CCL-226)
Sequence (P56726 33-793): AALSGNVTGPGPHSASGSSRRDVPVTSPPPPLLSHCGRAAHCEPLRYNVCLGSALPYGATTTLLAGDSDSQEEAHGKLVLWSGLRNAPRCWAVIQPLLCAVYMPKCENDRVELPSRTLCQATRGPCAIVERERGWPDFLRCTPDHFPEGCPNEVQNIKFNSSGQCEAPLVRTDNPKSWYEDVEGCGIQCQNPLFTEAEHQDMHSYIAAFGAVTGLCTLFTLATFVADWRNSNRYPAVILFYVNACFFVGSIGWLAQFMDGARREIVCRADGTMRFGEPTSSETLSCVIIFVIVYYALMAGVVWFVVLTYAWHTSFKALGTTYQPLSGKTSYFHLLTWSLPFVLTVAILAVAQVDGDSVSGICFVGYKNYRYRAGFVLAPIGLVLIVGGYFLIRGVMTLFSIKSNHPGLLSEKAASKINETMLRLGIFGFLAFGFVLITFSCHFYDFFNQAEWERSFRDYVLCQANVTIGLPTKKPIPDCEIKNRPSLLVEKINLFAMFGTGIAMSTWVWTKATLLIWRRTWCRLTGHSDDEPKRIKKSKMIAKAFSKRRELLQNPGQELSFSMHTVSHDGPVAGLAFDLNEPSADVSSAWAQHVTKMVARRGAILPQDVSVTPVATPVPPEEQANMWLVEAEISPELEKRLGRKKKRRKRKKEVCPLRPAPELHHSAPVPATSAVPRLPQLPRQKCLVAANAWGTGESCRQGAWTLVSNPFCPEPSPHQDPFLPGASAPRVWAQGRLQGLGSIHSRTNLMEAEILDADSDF
Assay: Smoothened (SMO)/Sonic Hedgehog (SHh) Transient Transcriptional Activation Assay (Gli-luciferase reporter in C3H10T1/2 cells)
Type: cell-based, murine
Settings: C3H 10T1/2, 2 μM test compound, SHh 250 ng/ml, 20 hrs, read-out: SMO CELL % INHIBITION @ 2 μM
Structures can show the parent of a compound that is named as a salt.
quantity: inhibition at 2 µM (%)

O=C(CN1C(=O)COc2cccnc21)NC1CCCC(c2nc3ccccc3[nH]2)C1 (stereo not drawn) :: 103
COc1cc(OC)cc(C(=O)N[C@@H]2CCC[C@H](c3nc4ccc(C(F)(F)F)cc4[nH]3)C2)c1 [Example 170, HCl] :: 110
O=C(NC1CCCC(c2nc3ccccc3[nH]2)C1)c1ccc2c(c1)OCO2 (stereo not drawn) [Example 58, HCl] :: 82
O=C(COCc1ccccc1)NC1CCCC(c2nc3ccccc3[nH]2)C1 (stereo not drawn) :: 73

[a] [N-]=[N+]=Nc1ccc(C(=O)NC23CCCC(c4nc5cc(C(F)(F)F)ccc5[nH]4)(C2)C3)cc1
[b] COc1cc(C(=O)N[C@@H]2CCC[C@H](c3nc4ccccc4[nH]3)C2)ccn1 [Example 165, HCl]
Challenge: Lab note: check whether a or b shows the higher recorded inhibition at 2 µM. Give the chosen item's label as your response.
Response given: a
(a: 93.2%, b: 63%)

###

Target: SMO (Mus musculus)
Construct: endogenous in cells; host or cells: C3H10T1/2 (ATCC #CCL-226)
Assay: Smoothened (SMO)/Sonic Hedgehog (SHh) Transient Transcriptional Activation Assay (Gli-luciferase reporter in C3H10T1/2 cells)
Assay type: cell-based, murine
Conditions: C3H 10T1/2, 2 μM test compound, SHh 250 ng/ml, 20 hrs, read-out: SMO CELL % INHIBITION @ 2 μM
Where a name gives a salt, the structure may show the parent alone.
quantity: inhibition at 2 µM (%)

Some solved cases for reference:
O=C(N[C@@H]1CCC[C@H](c2nc3ccccc3[nH]2)C1)c1ccc2snnc2c1 :: 34
O=C(CN1CCCCCC1=O)NC1CCCC(c2nc3ccccc3[nH]2)C1 (centres unmarked) :: 93

[a] O=C(N[C@@H]1CCC[C@H](c2nc3ccccc3[nH]2)C1)c1cc2cc(Cl)ccc2o1
[b] CCc1ccc2nc(C(=O)N[C@@H]3CCC[C@H](c4nc5ccccc5[nH]4)C3)cn2c1
Challenge: Problem: Given the entries a and b , determine which has the lower reported inhibition at 2 µM. Give the chosen item's label as your response.
Response given: b
(b: 48%, a: 104%)

[I] O=C(NC12CCCC(c3nc4cc(C(F)(F)F)ccc4[nH]3)(C1)C2)c1cc2c(cn1)OCCO2
[II] O=C(N[C@@H]1CCC[C@H](c2nc3ccccc3[nH]2)C1)c1nc2ccccc2[nH]1 [Example 176, HCl]
Challenge: Lab note: check whether I or II shows the higher recorded inhibition at 2 µM. Give the chosen item's label as your response.
Response given: I
(I: 91.4%, II: 57%)

###

Biological target: SMO (Mus musculus, UniProt P56726)
Construct: endogenous in cells; host or cells: C3H10T1/2 (ATCC #CCL-226)
Assay: Smoothened (SMO)/Sonic Hedgehog (SHh) Transient Transcriptional Activation Assay (Gli-luciferase reporter in C3H10T1/2 cells)
Format: cell-based, murine
Conditions: C3H 10T1/2, 2 uM test compound, SHh 250 ng/ml, 20 hrs, read-out: SMO % inhibition at 2 uM
quantity: inhibition at 2 µM (%)

CN(C(=O)c1ccc2c(c1)OCCO2)C1CCCC(c2nc3ccccc3n2C)C1 (stereo not shown) [Example 14] :: 95
CN1C(=O)COc2ccc(C(=O)N[C@@H]3CCC[C@H](c4nc5ccccc5[nH]4)C3)cc21 [Example 45] :: 108
COCCNc1ccc(C(=O)N[C@@H]2CCC[C@H](c3nc4ccccc4[nH]3)C2)cn1 [Example 41] :: 87
O=C(Nc1ccc(C(F)(F)F)cc1)N[C@@H]1CCC[C@H](c2nc3ccccc3[nH]2)C1 [Example 47] :: 108
